The reported numbers originate from ChEMBL document CHEMBL5137064.

Reported pKi values follow for various molecules
# targetUnderTest: NAD-dependent protein deacylase sirtuin-5, mitochondrial (Homo sapiens)
# protocol: Binding affinity to SIRT5 (unknown origin) assessed as desuccinylation activity by measuring inhibition constant
*1 amine or outer side, *2 acyl side, *3 side chain or, on linkers, in order; H or OH if unused. Where a SMILES comes first, the peptide text is derived from it. Side-chain parts run from the residue outwards. The star is where a group is joined. ξ: configuration not given here. Succinyl(3ξ-Ph) = O=C(O)C(CC(=O)*)c1ccccc1; βAsp = O=C(O)[C@H](CC(=O)[*:2])N[*:1]; X2 = CC(CC(=O)*)(C(=O)O)c1ccccc1; X4 = CC(=O)SC(CC(=O)*)C(=O)O; X3 = CCCCC(CC(=O)*)C(=O)O; Cbz = O=C(OCc1ccccc1)*; Bz = O=C(c1ccccc1)*
Remember the convention: pKi equals -log10 of concentration in molar.

Recorded pKi, per entry:
molecule="CC(C)C[C@H](NC(=O)[C@@H](NC(=O)CNC(=O)c1ccccc1)C(C)C)C(=O)N[C@@H](CCCCNC(=O)CC(C(=O)O)c1ccccc1)C(=O)N[C@@H](CCC(=O)O)C(=O)N[C@@H](Cc1ccc(O)cc1)C(=O)NCC(=O)N[C@H](C(N)=O)C(C)C (stereo not given in full) (Bz-GVLK(Succinyl(3ξ-Ph))EYGV-NH2)" targetundertest="NAD-dependent protein deacylase sirtuin-5, mitochondrial (Homo sapiens)" testvalue=4.00
molecule="CC(=O)SC(CC(=O)NCCCC[C@H](NC(=O)[C@H](CC(C)C)NC(=O)[C@@H](NC(=O)CNC(=O)c1ccccc1)C(C)C)C(=O)N[C@@H](CCC(=O)O)C(=O)N[C@@H](Cc1ccc(O)cc1)C(=O)NCC(=O)N[C@H](C(N)=O)C(C)C)C(=O)O (stereo not given in full) (Bz-GVLK(X4)EYGV-NH2)" targetundertest="NAD-dependent protein deacylase sirtuin-5, mitochondrial (Homo sapiens)" testvalue=4.97
molecule="CCCCC(CC(=O)NCCCC[C@H](NC(=O)[C@H](CC(C)C)NC(=O)[C@@H](NC(=O)CNC(=O)c1ccccc1)C(C)C)C(=O)N[C@@H](CCC(=O)O)C(=O)N[C@@H](Cc1ccc(O)cc1)C(=O)NCC(=O)N[C@H](C(N)=O)C(C)C)C(=O)O (stereo not given in full) (Bz-GVLK(X3)EYGV-NH2)" targetundertest="NAD-dependent protein deacylase sirtuin-5, mitochondrial (Homo sapiens)" testvalue=4.76

# input Given CC(C)C[C@H](NC(=O)[C@@H](NC(=O)CNC(=O)c1ccccc1)C(C)C)C(=O)N[C@@H](CCCCNC(=O)C[C@H](NC(=O)OCc1ccccc1)C(=O)O)C(=O)N[C@@H](CCC(=O)O)C(=O)N[C@@H](Cc1ccc(O)cc1)C(=O)NCC(=O)N[C@H](C(N)=O)C(C)C (Bz-GVLK([βAsp-Cbz])EYGV-NH2) , respond with its pKi.
# output 4.42

# input Given CC(C)C[C@H](NC(=O)[C@@H](NC(=O)CNC(=O)c1ccccc1)C(C)C)C(=O)N[C@@H](CCCCNC(=O)CC(C)(C(=O)O)c1ccccc1)C(=O)N[C@@H](CCC(=O)O)C(=O)N[C@@H](Cc1ccc(O)cc1)C(=O)NCC(=O)N[C@H](C(N)=O)C(C)C (stereo not given in full) (Bz-GVLK(X2)EYGV-NH2) , respond with its pKi.
# output 5.37

###

# targetUnderTest: NAD-dependent protein deacylase sirtuin-5, mitochondrial (Homo sapiens, UniProt Q9NXA8)
# Sequence (Q9NXA8 whole entry): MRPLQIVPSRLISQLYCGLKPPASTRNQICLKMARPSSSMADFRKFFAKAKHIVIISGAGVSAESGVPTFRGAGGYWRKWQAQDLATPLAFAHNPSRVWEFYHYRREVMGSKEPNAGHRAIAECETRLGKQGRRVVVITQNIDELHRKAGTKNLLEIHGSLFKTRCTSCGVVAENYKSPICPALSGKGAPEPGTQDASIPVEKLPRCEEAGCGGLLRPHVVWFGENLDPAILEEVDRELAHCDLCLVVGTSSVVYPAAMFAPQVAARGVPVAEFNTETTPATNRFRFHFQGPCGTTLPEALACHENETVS
# protocol: Inhibition of SIRT5 activity (unknown origin)
reportedEndpoint: pIC50
Remember the convention: pIC50 equals -log10 of concentration in molar.

# input Given `O=C(NC1CCC1)[C@H](Cc1c[nH]c2ccccc12)NC(=O)[C@H](CCCCNC(=S)NCc1nnn[nH]1)NS(=O)(=O)c1cccc(F)c1` , respond with its pIC50.
# output 5.29

###

# targetUnderTest: NAD-dependent protein deacylase sirtuin-5, mitochondrial (Homo sapiens)
# protocol: Inhibition of SIRT5 deglutarylase activity (unknown origin)
reportedEndpoint: IC50 (µM)

Recorded IC50, per entry:
inputsmiles=O=C(O)CCNC(=S)NCCCC[C@H](NS(=O)(=O)c1cccc(F)c1)C(=O)N[C@@H](Cc1c[nH]c2ccccc12)C(=O)NC1CCCC1 targetundertest="NAD-dependent protein deacylase sirtuin-5, mitochondrial (Homo sapiens)" testvalue=0.23
inputsmiles=O=C(NC1CCC1)[C@H](Cc1c[nH]c2ccccc12)NC(=O)[C@H](CCCCNC(=S)NCCc1cc(O)on1)NS(=O)(=O)c1cccc(F)c1 targetundertest="NAD-dependent protein deacylase sirtuin-5, mitochondrial (Homo sapiens)" testvalue=0.29

[I] O=C(O)CCNC(=S)NCCCC[C@H](NS(=O)(=O)c1cccc(F)c1)C(=O)N[C@@H](Cc1c[nH]c2ccccc12)C(=O)NC1CC1
[II] O=C(NC1CCC1)[C@H](Cc1c[nH]c2ccccc12)NC(=O)[C@H](CCCCNC(=S)NCCc1noc(=S)[nH]1)NS(=O)(=O)c1cccc(F)c1
# input Compare reported IC50 values for I and II . Which is lower? Return value: the label identifying the chosen record.
# output I
(I: 0.26 µM, II: 0.9 µM)

###

# targetUnderTest: NAD-dependent protein deacylase sirtuin-5, mitochondrial (Homo sapiens)
# protocol: Inhibition of SIRT5 desuccinylase activity (unknown origin) using succinyl-lysine as substrate
reportedEndpoint: IC50 (µM)

[P] CC(=O)NCCCC[C@H](NC(=O)[C@H](CCCCNC(=S)NCCC(=O)O)NC(=O)C(CCCNC(=N)N)NC(C)=O)C(N)=O (some centres undefined)
[Q] N=C(N)NCCC[C@@H]1NC(=O)CCCCC(=O)NCCCC[C@@H](C(N)=O)NC(=O)[C@H](CCCCNC(=S)NCCC(=O)O)NC1=O
[R] N=C(N)NCCC[C@@H]1NC(=O)CCC(=O)NCCCC[C@@H](C(N)=O)NC(=O)[C@H](CCCCNC(=S)NCCC(=O)O)NC1=O
[S] N=C(N)NCCC[C@@H]1NC(=O)CCCCCCC(=O)NCCCC[C@@H](C(N)=O)NC(=O)[C@H](CCCCNC(=S)NCCC(=O)O)NC1=O
# input Lab note: arrange the 4 compounds above from lowest to highest IC50. // ordering of labels required in reply
# output S, R, Q, P
(S: 2.2 µM, R: 4 µM, Q: 6.5 µM, P: 93.1 µM)

###

# targetUnderTest: NAD-dependent protein deacylase sirtuin-5, mitochondrial (Homo sapiens, UniProt Q9NXA8)
# protocol: Inhibition of human recombinant SIRT5 using fluorogenic Benzyl-Lys(Succinyl)-AMC as substrate incubated for 2 hrs measured by fluoroscence based microplate reader method
reportedEndpoint: IC50 (µM)

Recorded IC50, per entry:
inputsmiles=Cc1ccc(NC(=O)/C(C#N)=C/c2ccc(-c3ccc(C(=O)O)cc3)o2)cc1C measureunit=µM testvalue=22.7
inputsmiles=N#C/C(=C\c1ccc(-c2ccc(C(=O)O)cc2)o1)C(=O)Nc1ccc(C#N)c(C(F)(F)F)c1 measureunit=µM testvalue=13.9

[P] Cc1ccc(NC(=O)/C(C#N)=C/c2ccc(-c3ccc(C(=O)O)cc3C)o2)cc1C
[Q] Cc1cc(C)cc(NC(=O)/C(C#N)=C/c2ccc(-c3ccc(C(=O)O)cc3)o2)c1
[R] Cc1ccc(NC(=O)/C(C#N)=C/c2ccc(-c3cccc(C(=O)O)c3)o2)cc1C
[S] N#C/C(=C\c1ccc(-c2ccc(C(=O)O)cc2)o1)C(=O)Nc1ccc(Cl)c(C(F)(F)F)c1
# input Rank ascending by IC50. // ordering of labels required in reply
# output S, Q, P, R
(S: 16.4 µM, Q: 37.9 µM, P: 57.4 µM, R: 101 µM)
